Experiment: Inhibition of V-ATPase activity in bovine […] chromaffin granule membrane
Design: species or system Bos taurus
Parameter measured: pIC50
Keep it numeric: pIC50 is minus log10 of the concentration in mol/L.

Q: Name the recorded pIC50 of the compound listed here: CC/C=C\C=C/C(=O)N/C=C/C[C@H]1C[C@@H](O)[C@@H](C)C/C=C/Cc2cccc(O)c2C(=O)O1 [SALICYLIHALAMIDE A]
A: 9.00

---

Experiment: Inhibition of proton transport activity of V-ATPase in pig adrenal chromaffin granule membrane by fluorescent quenching measurement
Parameters: species or system Sus scrofa
Let's look at some compounds and their measured pIC50.
# pIC50 is unitless: minus log10 of the molar concentration; print number only

For orientation, consider the following solved cases.
Compound	pIC50
CC/C=C\C=C/C(=O)N/C=C/C[C@H]1C[C@@H](O)[C@@H](C)C/C=C/Cc2ccc(F)c(O)c2C(=O)O1 [4-19F-SALICYLIHALAMIDE A]	8.70
CC/C=C\C=C/C(=O)N/C=C\C[C@H]1C[C@@H](O)[C@@H](C)C/C=C/Cc2ccc(F)c(O)c2C(=O)O1 [4-19F-SALICYLIHALAMIDE B]	8.00

Q: Let me know recorded pIC50 for CC/C=C\C=C/C(=O)N/C=C\C[C@H]1C[C@@H](O)[C@@H](C)C/C=C/Cc2cccc(O)c2C(=O)O1 [SALICYLIHALAMIDE B] , thanks.
A: 7.52
